The entries below come with measured pIC50 values attached.
- testedSystem: TEC (Homo sapiens, UniProt P42680)
- Sequence (P42680 1-631): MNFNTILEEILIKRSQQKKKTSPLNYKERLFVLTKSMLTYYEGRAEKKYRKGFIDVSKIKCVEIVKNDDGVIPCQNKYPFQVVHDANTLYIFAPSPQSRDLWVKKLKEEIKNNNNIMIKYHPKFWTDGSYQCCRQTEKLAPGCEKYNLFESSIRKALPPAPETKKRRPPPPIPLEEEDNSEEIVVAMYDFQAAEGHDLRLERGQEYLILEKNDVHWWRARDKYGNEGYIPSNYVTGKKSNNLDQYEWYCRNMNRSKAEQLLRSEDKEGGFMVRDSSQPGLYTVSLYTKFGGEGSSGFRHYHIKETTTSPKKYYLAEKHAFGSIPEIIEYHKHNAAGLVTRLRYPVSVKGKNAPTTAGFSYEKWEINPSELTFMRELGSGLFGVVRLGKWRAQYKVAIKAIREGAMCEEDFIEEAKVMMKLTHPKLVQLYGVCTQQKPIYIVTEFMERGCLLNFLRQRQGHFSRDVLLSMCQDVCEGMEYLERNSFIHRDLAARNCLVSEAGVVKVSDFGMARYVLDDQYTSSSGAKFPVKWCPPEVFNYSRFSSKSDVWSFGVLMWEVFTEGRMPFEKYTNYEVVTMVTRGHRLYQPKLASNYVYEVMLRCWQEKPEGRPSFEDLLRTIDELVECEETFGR
- measurementProtocol: Inhibition of a panel of kinases, in vitro HotSpot kinase assay: TEC
- Format: biochemical
- testParameters: D-compounds panel data; 1 μM ATP
pIC50: −log10 of the molar value.

Q: Fill in pIC50 for record Cn1cc(Nc2nc(N3CC(NC(=O)c4ccc(C5CC5)cc4)CC(F)(F)C3)cnc2C(N)=O)cn1 (stereo in doubt)
Ans: 6.00 to 7.00

* * *

The entries below come with measured IC50 values attached.
- testedSystem: LCK (Homo sapiens, UniProt P06239)
- Sequence (P06239 whole entry): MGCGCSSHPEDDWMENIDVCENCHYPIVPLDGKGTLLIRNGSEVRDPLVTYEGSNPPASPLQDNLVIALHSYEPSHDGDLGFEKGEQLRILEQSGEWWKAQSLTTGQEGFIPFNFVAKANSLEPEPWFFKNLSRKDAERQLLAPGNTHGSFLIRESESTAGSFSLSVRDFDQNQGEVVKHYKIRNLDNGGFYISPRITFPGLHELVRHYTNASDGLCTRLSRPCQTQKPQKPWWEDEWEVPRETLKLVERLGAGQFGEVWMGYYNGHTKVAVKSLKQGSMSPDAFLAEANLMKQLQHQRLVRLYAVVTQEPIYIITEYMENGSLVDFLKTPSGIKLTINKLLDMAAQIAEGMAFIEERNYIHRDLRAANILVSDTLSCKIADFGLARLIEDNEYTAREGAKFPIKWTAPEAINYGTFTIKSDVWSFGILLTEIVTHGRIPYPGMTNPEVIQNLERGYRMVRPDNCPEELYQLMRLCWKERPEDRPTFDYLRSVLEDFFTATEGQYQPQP
- measurementProtocol: Inhibition of a panel of kinases, in vitro HotSpot kinase assay: LCK
- Type: biochemical
- testParameters: D-compounds panel data; 1 μM ATP; read-out: IC50 LCK

Example compounds with recorded IC50:
- compound: "C[C@@H]1[C@H](NC(=O)c2ccc(C3CC3)nc2)CCCN1c1cnc(C(N)=O)c(Nc2ccc(N3CCN(C)CC3)cc2)n1 [Example D-203]"
  IC50: "10 to 100 nM"
- compound: "C[C@@H]1[C@H](NC(=O)c2ccc(S(C)(=O)=O)cc2)CCCN1c1cnc(C(N)=O)c(Nc2ccc(N3CCN(C)CC3)cc2)n1 [Example D-227]"
  IC50: "10 to 100 nM"

Q: Fill in IC50 for record Cn1cc(Nc2nc(N3C4CCC(NC(=O)c5ccc(C6CC6)cc5)C3CC4)cnc2C(N)=O)cn1 (single isomer, unassigned) [Example D-201]
Ans: 100 to 1000 nM

* * *

- testedSystem: SRC (Homo sapiens, UniProt P12931)
- Sequence (P12931 whole entry): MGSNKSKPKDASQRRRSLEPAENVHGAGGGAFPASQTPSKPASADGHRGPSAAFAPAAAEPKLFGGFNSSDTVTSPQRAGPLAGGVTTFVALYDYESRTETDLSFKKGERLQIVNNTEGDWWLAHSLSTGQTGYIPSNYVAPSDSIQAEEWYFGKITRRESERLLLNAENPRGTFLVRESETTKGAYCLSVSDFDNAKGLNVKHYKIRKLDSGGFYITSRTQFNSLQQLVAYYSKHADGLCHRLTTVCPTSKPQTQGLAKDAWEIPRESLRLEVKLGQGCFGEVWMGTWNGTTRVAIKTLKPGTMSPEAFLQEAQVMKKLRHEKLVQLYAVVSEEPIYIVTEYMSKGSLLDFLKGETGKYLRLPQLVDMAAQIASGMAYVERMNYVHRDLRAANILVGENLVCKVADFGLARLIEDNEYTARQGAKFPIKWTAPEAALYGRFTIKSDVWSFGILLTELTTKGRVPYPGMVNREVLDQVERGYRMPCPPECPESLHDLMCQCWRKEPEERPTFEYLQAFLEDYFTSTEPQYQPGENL
- measurementProtocol: Inhibition of a panel of kinases, in vitro HotSpot kinase assay: SRC
- Assay type: biochemical
- testParameters: D-compounds panel data; 1 μM ATP
propertyLabel: IC50

- compound: "C[C@@H]1[C@H](NC(=O)c2ccc(C3CC3)cc2)CCCN1c1cnc(C(N)=O)c(Nc2cnn(C3CCNCC3)c2)n1"
  testedSystem: "SRC (Homo sapiens, UniProt P12931)"
  experimentalResult: "≤ 0.01 µM"

Pending compound:
Q: Fill in IC50 for record Cc1cc(Nc2nc(N3C[C@@H](NC(=O)c4ccc(C5CC5)cc4F)CC[C@@H]3C)cnc2C(N)=O)sn1
Ans: 0.1 to 1 µM

Values compiled from patent US20210070748A1.
